# Method Notes: differential killing of epithelial or mesenchymal cells, primary screen, imaging, PC-3E GFP, TEM4-18 mCherry, co-culture (AID 1345086);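 further: cells exposed to compound for 72 h before imaging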;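 on red/green cell ratio (normalised): normalised mesenchymal count divided by normalised epithelial count so high means epithelial killing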
# Measurement Parameters: imaging cell counts, at 1 µM, actives lie on both sides, counts scaled to control wells, 1 = unselective
Consider the cut-off 1. If the recorded red/green cell ratio (normalised) is strictly smaller, the label is satisfied; if not, the label is not satisfied.

Record CCC(CCC(C)[C@H]1CCC2C3CC=C4C[C@@H](O)CC[C@]4(C)C3CC[C@@]21C)C(C)C (some centres not stated) : is its red/green cell ratio (normalised) strictly below 1?
not satisfied

Below 1 on red/green cell ratio (normalised)? Entry C[C@@H]1CCC2[C@](C)(CO)[C@@H](O)CC[C@]2(C)[C@@]12CC[C@@](CO)(CCO)O2 (some centres not stated)
satisfied

In plain terms, does COC(=O)[C@@H]1C(O)CC[C@H]2CN3CCc4c([nH]c5ccccc45)[C@@H]3C[C@@H]21 (some centres not stated) come in under 1 for red/green cell ratio (normalised)?
not satisfied

Please state whether red/green cell ratio (normalised) is below 1 for CC1=C(/C=C/C(C)=C/C=C/C(C)=C/C=C/C=C(C)/C=C/C=C(C)/C=C/C2=C(C)C(=O)CCC2(C)C)C(C)(C)CCC1=O
not satisfied

Threshold test, red/green cell ratio (normalised) < 1: C=C1CC2C3C=C(C)C4=CC(=O)CC[C@]4(C)C3CC[C@]2(C)[C@@]1(OC(C)=O)C(C)=O (some centres not stated)
not satisfied

# check: red/green cell ratio (normalised) < 1 for CC1(C)CCC[C@]2(C)[C@H]3CC(=O)O[C@]3(C)CC[C@@H]12
not satisfied

Please let me know if Cc1c(O)c(O)cc2oc3cc(O)cc(O)c3c(=O)c12 shows red/green cell ratio (normalised) below 1.
not satisfied

Please determine if C=C1[C@@H](C)C2[C@H](Cc3c[nH]c4ccccc34)NC(=O)[C@]23C(=O)/C=C/C(=O)[C@H](O)/C(C)=C/[C@@H](C)C/C=C/[C@H]3[C@@H]1O (some centres not stated) is below 1 in terms of red/green cell ratio (normalised).
satisfied

Take the compound CC(=O)[C@H]1CCC2C3CCC4=CC(=O)CC[C@]4(C)C3CC[C@@]21C (some centres not stated) and say whether its red/green cell ratio (normalised) is less than 1.
satisfied

Here's an entry: CC1(C)C[C@H]2[C@@]1(O)[C@@H](O)C[C@]1(C)[C@H](O)C=C[C@]21CO . Is its red/green cell ratio (normalised) below 1?
satisfied

Is red/green cell ratio (normalised) strictly under 1 for the entry C/C=C/[C@@H]1OC2=C(C(=O)O[C@H]2C)[C@H](O)[C@H]1O ?
satisfied

Lab log: compare recorded red/green cell ratio (normalised) with 1; is it strictly lower for C[C@H]1CC2C3CCC4=CC(=O)C=C[C@]4(C)[C@@]3(F)[C@@H](O)C[C@]2(C)[C@@]1(O)C(=O)COP(=O)(O)O (some centres not stated) ?
not satisfied

Does the reported red/green cell ratio (normalised) of the following compound sit strictly below 1? C[C@]12C=CC(=O)C=C1CCC1C3C[C@@H](O)[C@](O)(C(=O)CO)[C@@]3(C)C[C@H](O)[C@@]12F (some centres not stated)
not satisfied

====

Give normalised cell number for every item shown.
# Method Notes: differential killing of epithelial or mesenchymal cells, primary screen, imaging, PC-3E GFP, TEM4-18 mCherry, co-culture (AID 1345086);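 further: cells exposed to compound for 72 h before imaging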
# Measurement Parameters: imaging cell counts, measured here: epithelial PC-3E GFP cell survival, at 1 µM

# normalised cell number (molecule: CC1(C)S[C@@H]2[C@H](NC(=O)[C@H](C(=O)O)c3cccs3)C(=O)N2[C@H]1C(=O)O ) is 1.05

normalised cell number measured on [N-]=[N+]=N[C@H]1[C@H](Sc2ccccc2)OC(CO)C(O)[C@@H]1O (some centres undefined) = 1.08

The molecule listed as CC(=O)OCC(=O)[C@@]1(O)CCC2C3C[C@H](C)C4=CC(=O)C=CC4(C)C3[C@@H](O)CC21C (some centres undefined) has a reported normalised cell number of 1.16

Short answer for CC(=O)OCC(=O)[C@@]1(O)[C@@H](C)CC2C3CCC4=CC(=O)C=C[C@]4(C)[C@@]3(F)[C@@H](O)C[C@@]21C (some centres undefined) : normalised cell number was 1.21

====

I'd appreciate it if you could supply score values for the items below.
# Method Notes: suppressors of polyQ aggregation in yeast, 75Q-TubU reporter (AID 1593)
# Measurement Parameters: Yeast 75Q polyglutamine aggregation reporter
Format: numeric value only, no unit, no commentary.

molecule CC(=O)OCC(=O)[C@@]1(O)[C@H](C)CC2C3CCC4=CC(=O)C=C[C@]4(C)[C@@]3(F)[C@@H](O)C[C@@]21C (stereo partly drawn) , score observed: 0.99

get_value(item= CC(=O)[C@H]1CCC2C3C[C@H](C)C4=CC(=O)CC[C@]4(C)C3[C@@H](O)C[C@@]21C (stereo partly drawn) , readout=score) returns 0.84

Entry CO[C@H]1C[C@H](O[C@H]2[C@H](C)[C@@H](OC3O[C@H](C)C[C@H](N(C)C)[C@H]3O)[C@@H](C)C[C@]3(CO3)C(=O)[C@H](C)[C@@H](O)[C@@H](C)[C@@H](C)OC(=O)[C@@H]2C)O[C@@H](C)[C@@H]1O (stereo partly drawn) — recorded score = 1.24

The molecule CC(C)CC(NC(=O)CCN)C(=O)O (stereo not drawn) showed score equal to 1.04

Lab book: score of CC[C@H]1OC(=O)[C@H](C)[C@@H](O[C@H]2C[C@@](C)(OC)[C@@H](O)[C@H](C)O2)[C@H](C)[C@@H](O[C@@H]2O[C@H](C)C[C@H](N(C)C)[C@H]2O)[C@](C)(O)C[C@@H](C)CN(C)[C@H](C)[C@@H](O)[C@]1(C)O noted as 1.1

The reported value for CCCC(=O)Nc1ncnc2c1ncn2C1O[C@@H]2COP(=O)(O)O[C@H]2[C@H]1OC(=O)CCC (stereo partly drawn) in terms of score is 1.26

Record C[C@H]1O[C@@H](O[C@H]2[C@@H](O)C[C@H](O[C@H]3[C@@H](O)C[C@H](O[C@H]4CC[C@]5(C)C6C[C@@H](O)[C@]7(C)[C@@H](C8=CC(=O)OC8)CC[C@]7(O)C6CC[C@@H]5C4)O[C@@H]3C)O[C@@H]2C)C[C@H](O)[C@@H]1O (stereo partly drawn) . Reported score: 1.17

Entry CCCCCC(=O)O[C@]1(C(C)=O)CCC2C3CCC4=CC(=O)CC[C@]4(C)C3CC[C@@]21C (stereo partly drawn) , score reported as -0.83

The measured score associated with CN[C@@H]1C(OC2[C@H](O[C@H]3[C@H](O)[C@@H](O)[C@H](N=C(N)N)[C@@H](O)[C@@H]3N=C(N)N)OC(C)[C@]2(O)CO)OC(CO)C(O)C1O (stereo partly drawn) reads 1.24

Lab book: score of Nc1ccn(C2O[C@H](CO)[C@@H](O)[C@@H]2O)c(=O)n1 (stereo partly drawn) noted as 1.28

// recorded score for Nc1ccc(C(=O)O)c(O)c1 (tested in a mixture with another compound) : 1.25

Data point: COc1ccc(-c2cc(=O)c3c(O)cc(O[C@@H]4O[C@H](CO[C@H]5O[C@H](C)[C@@H](O)[C@H](O)[C@@H]5O)[C@@H](O)[C@H](O)[C@H]4O)cc3o2)cc1O ; score = 2.29

In plain terms, CC(=O)OCC(=O)[C@H]1CCC2C3CCC4=CC(=O)CC[C@]4(C)C3CC[C@@]21C (stereo partly drawn) has a documented score of 0.92

====

# System Tested: Calcium-activated potassium channel subunit alpha-1 (Homo sapiens) + Leucine-rich repeat-containing protein 26 (Homo sapiens) (UniProt Q12791+Q2I0M4)
# Sequence (Q2I0M4 whole entry, looked up, one chain of several): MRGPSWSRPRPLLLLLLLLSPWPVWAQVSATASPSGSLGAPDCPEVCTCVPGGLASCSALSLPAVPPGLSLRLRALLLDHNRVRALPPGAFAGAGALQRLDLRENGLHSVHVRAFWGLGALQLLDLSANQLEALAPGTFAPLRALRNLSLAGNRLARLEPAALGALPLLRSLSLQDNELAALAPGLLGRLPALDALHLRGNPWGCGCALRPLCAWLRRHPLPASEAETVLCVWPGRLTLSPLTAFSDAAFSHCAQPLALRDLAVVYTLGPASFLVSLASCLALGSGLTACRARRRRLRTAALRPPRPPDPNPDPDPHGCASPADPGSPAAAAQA
# Method Notes: modulators of BK channel variants, profiling panel, selectivity assay, cell-based, U2OS BacMam, thallium flux, beta subunits (AID 1259406);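 further: initial slope of Thallos dye fluorescence rise after thallium is added; log ratio against the mean of 0.3% DMSO vehicle wells on the same plate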
# Measurement Parameters: F380Y/Slo1WT/gamma1, at 30 µM
Flag rule - log fold change Tl+ flux less than -0.005 flags yes (1); the remaining entries get no (0).

Threshold test, log fold change Tl+ flux < -0.005: Cc1nnc(SCC2=C(C(=O)O)N3C(=O)C(NC(=O)Cn4cnnn4)C3SC2)s1 (stereo unspecified)
no (0)

log fold change Tl+ flux under -0.005? Item: O=c1cnn([C@@H]2O[C@H](CO)[C@@H](O)[C@H]2O)c(=O)[nH]1
yes (1)

Does O=c1[nH]c2ccc(Cl)cc2c2oc(-c3ccccc3)nc12 have log fold change Tl+ flux strictly under -0.005?
yes (1)

Given O=c1[nH]c(=O)n(C2CCCO2)cc1F (stereo unspecified) , is recorded log fold change Tl+ flux strictly lower than -0.005?
no (0)

Lab log: compare recorded log fold change Tl+ flux with -0.005; is it strictly lower for Cc1c(O)nc2ccccn2c1=O ?
no (0)

Is it true that log fold change Tl+ flux reported for O=C1CN2Cc3c(ccc(Cl)c3Cl)N=C2N1 is less than -0.005?
yes (1)

In the record for O=C1C(c2c(O)[nH]c3ccccc23)=Nc2ccccc21 , is log fold change Tl+ flux less than -0.005?
yes (1)

Please let me know if O=C(CNc1cc(C(F)(F)F)cc(C(F)(F)F)c1)c1ccc(Cl)cc1 shows log fold change Tl+ flux below -0.005.
yes (1)

Is it true that log fold change Tl+ flux reported for CC(=O)c1sc(SCc2ccc(Cl)cc2)c2c1CC(C)(C)CC2=O is less than -0.005?
yes (1)

API: query returns whether the compound falls strictly under -0.005 in log fold change Tl+ flux. Query: O=C1c2ccccc2NC(c2cc(Cl)cc(Cl)c2O)N1Cc1cccnc1 (stereo unspecified)
no (0)

Dear reviewer, please state whether Cc1cccc(N=Cc2cc(Cl)cc(Cl)c2O)c1C has log fold change Tl+ flux strictly beneath -0.005.
no (0)

Dear reviewer, please state whether CC[C@H]1OC(=O)[C@H](C)[C@@H](O[C@H]2C[C@@](C)(OC)[C@@H](O)[C@H](C)O2)[C@H](C)[C@@H](O[C@@H]2O[C@H](C)C[C@H](N(C)C)[C@H]2O)[C@](C)(O)C[C@@H](C)CN(C)[C@H](C)[C@@H](O)[C@]1(C)O has log fold change Tl+ flux strictly beneath -0.005.
yes (1)

Does the reported log fold change Tl+ flux of the following compound sit strictly below -0.005? CCOC(=O)c1cc(NC(=O)CC(C)(C)CC(=O)O)ccc1N1CCCCC1
yes (1)

# check: log fold change Tl+ flux < -0.005 for CCC(=C(c1ccccc1)c1ccc(OCCN(C)C)cc1)c1ccccc1
yes (1)

For this compound, is log fold change Tl+ flux lower than -0.005? Cc1nc(-c2ccc(S(=O)(=O)N3CCCN(c4ccc(C(F)(F)F)cn4)CC3)s2)cs1
no (0)

log fold change Tl+ flux under -0.005? Item: CN(C)S(=O)(=O)c1ccc2c(c1)/C(=C\CCN1CCNCC1)c1ccccc1S2
yes (1)

Please check: log fold change Tl+ flux for Cc1nc(-c2ccccc2)sc1C(=O)NC(=O)c1ccccc1O , strictly under -0.005 or not?
no (0)

Criterion: log fold change Tl+ flux strictly below -0.005. Is it met by COc1ccc(C(=O)NNC(=O)c2c(OC)cc(C(F)(F)F)cc2C(F)(F)F)cc1 ?
no (0)

is_below(log fold change Tl+ flux, -0.005) for CC(=O)N(C(C)=O)c1ccc2c3c(cccc13)CC2 ?
yes (1)

Does this compound meet the criterion log fold change Tl+ flux < -0.005? CC(C)(C)NC(=O)[C@@H]1C[C@@H]2CCCC[C@@H]2CN1C[C@@H](O)[C@H](Cc1ccccc1)NC(=O)[C@H](CC(N)=O)NC(=O)c1ccc2ccccc2n1
yes (1)

Please indicate whether the reported log fold change Tl+ flux of CN(C)CCc1c[nH]c2ccc(Cn3cncn3)cc12 is strictly below -0.005.
no (0)

Strictly below -0.005 in log fold change Tl+ flux? Cc1ccc(S(=O)(=O)NC(=O)NCc2csc3ccc(Cl)cc23)cc1
no (0)

Strictly below -0.005: is that where log fold change Tl+ flux of CC(=O)[C@@]1(O)CC[C@H]2[C@@H]3C[C@H](C)C4=CC(=O)CC[C@]4(C)[C@H]3CC[C@@]21C sits?
no (0)

Quick check: does Cc1ccc(S(=O)(=O)NC(=O)Nc2nc(-c3ccc(C)c(Cl)c3)c(C)s2)cc1 have log fold change Tl+ flux under -0.005?
no (0)

Does Cc1cc(CNCC(O)C(F)(F)F)no1 (stereo unspecified) have log fold change Tl+ flux strictly under -0.005?
no (0)

Hi there! Is log fold change Tl+ flux for O=C1c2cc(S(=O)(=O)O)ccc2CCC1S(=O)(=O)O (stereo unspecified) below -0.005, do you know?
yes (1)

Take the compound O=C(NC(=O)C12CC3CC(CC(C3)C1)C2)Nc1ccc(Cl)cc1 and say whether its log fold change Tl+ flux is less than -0.005.
no (0)

Just wondering, is log fold change Tl+ flux of O=C1c2c(O)cc(O)cc2O[C@H](c2ccc(O)c(O)c2)[C@@H]1O below -0.005?
yes (1)

Does the reported log fold change Tl+ flux of the following compound sit strictly below -0.005? Cc1ccc(C(=O)CC(=CC(=C(C#N)c2ccc([N+](=O)[O-])cc2)c2ccc(C)cc2)c2ccccc2)cc1
yes (1)

Field: below-cutoff. Rule: recorded log fold change Tl+ flux strictly less than -0.005. Subject: CC(CCCCC(=O)Nc1ccc(C(F)(F)F)cc1)NCCc1cnc[nH]1 (stereo unspecified)
no (0)

Quick check: does COc1ccc(CNCc2cc(OC)c(OC)c(OC)c2)cc1 have log fold change Tl+ flux under -0.005?
yes (1)

Quick check: does N#Cc1cc(-c2ccccc2)oc1NC(=O)c1cccs1 have log fold change Tl+ flux under -0.005?
no (0)

Threshold test, log fold change Tl+ flux < -0.005: Cc1ccc(C2=C(c3ccccc3)C(=O)C(c3ccccc3)=C2c2ccc(Cl)cc2)cc1
no (0)

Below -0.005 on log fold change Tl+ flux? Entry COc1cc(N)c(Cl)cc1C(=O)N[C@@H]1CCN(CCCOc2ccc(F)cc2)C[C@@H]1OC
yes (1)

Please indicate whether the reported log fold change Tl+ flux of CC(C)C1COC(c2cccc(C3=NC(C(C)C)CO3)n2)=N1 (stereo unspecified) is strictly below -0.005.
no (0)

Say whether its log fold change Tl+ flux is strictly beneath -0.005. Entry: CCOC(=O)c1cnn(C(=O)c2ccc(-n3c(C)ccc3C)cc2)c1N
no (0)

Determine whether this compound shows log fold change Tl+ flux lower than -0.005 (ties excluded): COC(=O)c1cnn(C(=O)Nc2c(C)cccc2C)c1C(OC)OC
no (0)

Hi there! Is log fold change Tl+ flux for O=C(CN1CCOCC1)Nc1ccccc1Sc1nccc(C(F)(F)F)n1 below -0.005, do you know?
no (0)

Is log fold change Tl+ flux strictly under -0.005 for the entry Cc1nn(S(=O)(=O)c2ccccc2)c(C)c1Oc1ccc(Cl)cc1 ?
yes (1)

Hi there! Is log fold change Tl+ flux for Cc1nn(Cc2nnn(CC(=O)NN=Cc3ccc(Cl)cc3)n2)c(C)c1Br below -0.005, do you know?
no (0)

Please let me know if Clc1ccc(-c2cnc(-c3ccc(Cl)cc3)o2)cc1 shows log fold change Tl+ flux below -0.005.
yes (1)
